B1: POU domain, class 3, transcription factor 2, residues 356 to 411; numbered along this chain, P20265 (parent)
chain: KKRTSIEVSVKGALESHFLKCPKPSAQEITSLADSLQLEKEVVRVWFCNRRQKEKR

- Variants of: B1
- experimental details: abundance fitness (aPCA) (normalised: wild type 0, dead -1); higher = more abundant; growth selection in yeast, the domain comes from the species named
- experimental context: Homo sapiens
Recorded abundance fitness by entry
The reply should be a number, written without any unit.

C21V = -0.421
T4D = 0.023
C48I = -0.004
S16P = -0.539
I29Y = -0.741
V43H = -0.938
S25R = -0.47
Q37I = -0.63
E39S = -0.039
K53T = 0.024

Given the entry "S9M" , report its measured abundance fitness.
-0.025

Now the same for "E28N"
-0.551

Now the same for "W46V"
-0.933
